Value source: patent US20240336909

- TESTED SYSTEM: AxCT mask27 EGFR EH104 L067 version 1
QUANTITY NAME: Percent cleavage
Remember to put the unit after the number in your answer.

Task: Fill in the blank: the reported Percent cleavage of MMP-1 (protein) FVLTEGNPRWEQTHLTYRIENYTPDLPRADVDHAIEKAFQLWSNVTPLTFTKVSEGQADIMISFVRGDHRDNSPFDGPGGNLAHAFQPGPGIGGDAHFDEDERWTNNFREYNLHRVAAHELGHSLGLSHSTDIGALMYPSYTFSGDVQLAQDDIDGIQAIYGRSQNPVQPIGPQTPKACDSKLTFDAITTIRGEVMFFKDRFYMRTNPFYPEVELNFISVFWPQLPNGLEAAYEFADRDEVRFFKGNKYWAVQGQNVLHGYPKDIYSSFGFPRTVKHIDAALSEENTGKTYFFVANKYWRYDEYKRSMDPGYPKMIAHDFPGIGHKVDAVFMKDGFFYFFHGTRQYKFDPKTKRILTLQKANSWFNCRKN is ____.
Result: 0%
